Assay: activity coefficient (dimensionless); of the first substance listed, at infinite dilution; xn = mol fraction of the nth substance listed
Settings: 333.15 K; Liquid; Chromatography; x1 = 0
Recorded Endpoint: activity coefficient
Respond using a number only.

CC#N [acetonitrile] + Cn1cc[n+](COCCCOC[n+]2ccn(C)c2)c1.O=S(=O)([N-]S(=O)(=O)C(F)(F)F)C(F)(F)F.O=S(=O)([N-]S(=O)(=O)C(F)(F)F)C(F)(F)F    0.28
c1ccncc1 [pyridine] + CCCOC[n+]1ccc(N(C)C)cc1.O=S(=O)([N-]S(=O)(=O)C(F)(F)F)C(F)(F)F    0.45
CCC[N+](=O)[O-] [1-nitropropane] + CCCCCCCCn1cc[n+](COCCC)c1C.O=S(=O)([N-]S(=O)(=O)C(F)(F)F)C(F)(F)F    0.53

Fill in activity coefficient for record CCCCCCC [heptane] + CCCOC[n+]1ccn(Cc2ccccc2)c1.O=S(=O)([N-]S(=O)(=O)C(F)(F)F)C(F)(F)F
10.1

Indicate its recorded activity coefficient; the molecule in question is CCc1ccccc1 [ethylbenzene] + CCCCCCCCn1cc[n+](COCCCOC[n+]2ccn(CCCCCCCC)c2C)c1C.N#C[N-]C#N.N#C[N-]C#N
1.34

Answer with the recorded activity coefficient of CCc1ccccc1 [ethylbenzene] + CCCCCCCCn1cc[n+](COCCC)c1C.O=S(=O)([N-]S(=O)(=O)C(F)(F)F)C(F)(F)F only.
1.03

# return recorded activity coefficient for entry c1ccccc1 [benzene] + Cn1cc[n+](COCCCOC[n+]2ccn(C)c2)c1.N#C[N-]C#N.N#C[N-]C#N
3.05

Give the value of activity coefficient reported for the following: CCOCC [diethyl ether] + CCCOC[n+]1ccn(C)c1.F[B-](F)(F)F
10.6

// fetch activity coefficient given entry C1COCCO1 [1,4-dioxane] + CCCCCCCCn1cc[n+](COCCCOC[n+]2ccn(CCCCCCCC)c2C)c1C.O=S(=O)([N-]S(=O)(=O)C(F)(F)F)C(F)(F)F.O=S(=O)([N-]S(=O)(=O)C(F)(F)F)C(F)(F)F
0.27

Specify activity coefficient for C#CCCCC [1-hexyne] + Cn1cc[n+](COCCCOC[n+]2ccn(C)c2)c1.N#C[N-]C#N.N#C[N-]C#N and stop.
15.2

Look up and state reported activity coefficient for CCCCCCCCCCCC [dodecane] + N#C[N-]C#N.N#C[N-]C#N.c1ccc(Cn2cc[n+](COCCCOC[n+]3ccn(Cc4ccccc4)c3)c2)cc1
634
